Quick record: MIC, Salmonella typhimurium G-20.

Example entries begin here.
molecule: CC1(C)S[C@@H]2[C@H](NC(=O)C(C(=O)O)c3ccccc3)C(=O)N2[C@H]1C(=O)O (stereo partly drawn) [Carbenicillin, carbenicillin, reference compound]
MIC: < 0.8 µg/mL
--
molecule: Cc1cccc2cc(C(=O)N[C@@H](C(=O)N[C@@H]3C(=O)N4[C@@H]3SC(C)(C)[C@@H]4C(=O)O)c3ccccc3)c(=O)oc12 [Example 15]
MIC: < 0.4 µg/mL

Now let's try a different one.
## Task Look up MIC with Salmonella typhimurium G-20 for this molecule: COC(=O)c1cccc2cc(C(=O)N[C@@H](C(=O)N[C@@H]3C(=O)N4[C@@H]3SC(C)(C)[C@@H]4C(=O)O)c3ccccc3)c(=O)oc12 [Example 14]
## Result < 0.4 µg/mL

----------
System: Serratia G-18
Test: Bactericidal test (MIC), Serratia G-18
Assay type: cell-based
Settings: G18; (11) Serratia G-18; read-out: MIC
Source text: Results of bactericidal tests (MIC, r/ml) on the penicillin derivatives of this invention prepared in the above examples are shown in the following table.
recorded_metric: MIC (µg/mL)
// return numeric value only (unit: µg/mL, not printed)

Example entries begin here.
compound: CC(=O)Oc1ccc2cc(C(=O)N[C@@H](C(=O)N[C@@H]3C(=O)N4[C@@H]3SC(C)(C)[C@@H]4C(=O)O)c3ccccc3)c(=O)oc2c1
recorded_metric: MIC
value_units: µg/mL
recorded_result: 100
--
compound: CC1(C)S[C@@H]2[C@H](NC(=O)[C@H](NC(=O)c3cc4ccccc4oc3=O)c3ccc(O)cc3)C(=O)N2[C@H]1C(=O)O
recorded_metric: MIC
value_units: µg/mL
recorded_result: 50
--
compound: COc1ccc2cc(C(=O)N[C@@H](C(=O)N[C@@H]3C(=O)N4[C@@H]3SC(C)(C)[C@@H]4C(=O)O)c3ccccc3)c(=O)oc2c1
recorded_metric: MIC
value_units: µg/mL
recorded_result: 12.5

Now let's try a different one.
## Task Record request: MIC value, item CC1(C)S[C@@H]2[C@H](NC(=O)[C@H](NC(=O)c3cc4cc(O)ccc4oc3=O)c3ccccc3)C(=O)N2[C@H]1C(=O)O
## Result 12.5

----------
Tested on: Serratia G-18
Test: Bactericidal test (MIC), Serratia G-18
Type: cell-based
Details: G18; (11) Serratia G-18; read-out: MIC
recorded_metric: MIC (µg/mL)
// return numeric value only (unit: µg/mL, not printed)

molecule: CC1(C)S[C@@H]2[C@H](NC(=O)[C@H](NC(=O)c3cc4cc(Cl)ccc4oc3=O)c3ccccc3)C(=O)N2[C@H]1C(=O)O [Example 2]
target_entity: Serratia G-18
MIC (µg/mL): 50
//
molecule: CC1(C)S[C@@H]2[C@H](NC(=O)[C@H](NC(=O)c3cc4cccc(O)c4oc3=O)c3ccccc3)C(=O)N2[C@H]1C(=O)O [Example 26]
target_entity: Serratia G-18
MIC (µg/mL): 12.5
//
molecule: COC(=O)c1cccc2cc(C(=O)N[C@@H](C(=O)N[C@@H]3C(=O)N4[C@@H]3SC(C)(C)[C@@H]4C(=O)O)c3ccccc3)c(=O)oc12 [Example 14]
target_entity: Serratia G-18
MIC (µg/mL): 12.5

## Task Record request: MIC value, item CCOc1ccc2oc(=O)c(C(=O)N[C@@H](C(=O)N[C@@H]3C(=O)N4[C@@H]3SC(C)(C)[C@@H]4C(=O)O)c3ccccc3)cc2c1 [Example 23]
## Result 25

## Task Record request: MIC value, item COc1cccc2cc(C(=O)N[C@@H](C(=O)N[C@@H]3C(=O)N4[C@@H]3SC(C)(C)[C@@H]4C(=O)O)c3ccccc3)c(=O)oc12 [Example 6]
## Result 6.25

----------
System: Pseudomonas aeruginosa GN-315
Test: Bactericidal test (MIC), Pseudomonas aeruginosa GN-315
Type: cell-based
Conditions: GN315; (15) Pseudomonas aeruginosa GN-315
# MIC listing for each entry below
// return numeric value only (unit: µg/mL, not printed)

Example entries begin here.
compound: CC1(C)S[C@@H]2[C@H](NC(=O)[C@H](NC(=O)c3cc4cc(Cl)ccc4oc3=O)c3ccccc3)C(=O)N2[C@H]1C(=O)O
target_entity: Pseudomonas aeruginosa GN-315
value_units: µg/mL
MIC: 25
//
compound: COc1ccc2oc(=O)c(C(=O)N[C@@H](C(=O)N[C@@H]3C(=O)N4[C@@H]3SC(C)(C)[C@@H]4C(=O)O)c3ccccc3)cc2c1
target_entity: Pseudomonas aeruginosa GN-315
value_units: µg/mL
MIC: 3.13

Now let's try a different one.
## Task Look up MIC with Pseudomonas aeruginosa GN-315 for this compound: CC1(C)S[C@@H]2[C@H](NC(=O)[C@H](NC(=O)c3cc4ccc(O)cc4oc3=O)c3ccccc3)C(=O)N2[C@H]1C(=O)O
## Result 12.5

----------
Tested on: Serratia G-18
Assay: Bactericidal test (MIC), Serratia G-18
Format: cell-based
Details: G18; (11) Serratia G-18; read-out: MIC
# MIC listing for each entry below
Number plus unit, in that order.

Example entries begin here.
compound: CC(=O)Oc1cccc2cc(C(=O)N[C@@H](C(=O)N[C@@H]3C(=O)N4[C@@H]3SC(C)(C)[C@@H]4C(=O)O)c3ccccc3)c(=O)oc12 [Example 21]
recorded_result: 12.5 µg/mL
--
compound: COc1cccc2oc(=O)c(C(=O)N[C@@H](C(=O)N[C@@H]3C(=O)N4[C@@H]3SC(C)(C)[C@@H]4C(=O)O)c3ccccc3)cc12 [Example 24]
recorded_result: 25 µg/mL
--
compound: Cc1ccc2oc(=O)c(C(=O)N[C@@H](C(=O)N[C@@H]3C(=O)N4[C@@H]3SC(C)(C)[C@@H]4C(=O)O)c3ccccc3)c(C)c2c1 [Example 5]
recorded_result: 50 µg/mL
--
compound: CC1(C)S[C@@H]2[C@H](NC(=O)[C@H](NC(=O)c3cc4cc(Br)ccc4oc3=O)c3ccccc3)C(=O)N2[C@H]1C(=O)O [Example 3]
recorded_result: 25 µg/mL

## Task Record request: MIC value, item CC1(C)S[C@@H]2[C@H](NC(=O)[C@H](NC(=O)c3cc4ccc(O)cc4oc3=O)c3ccccc3)C(=O)N2[C@H]1C(=O)O [Example 11]
## Result 200 µg/mL
